Kindly supply the reported IC50 values for the records listed here.
Biological target: human TLR7 (Homo sapiens, UniProt Q9NYK1)
Experiment: TLR7 inhibition reporter assay (HEK-Blue cells, SEAP reporter, gardiquimod stimulation)
Details: HEK-Blue cells overexpressing human TLR7, SEAP reporter, gardiquimod 7.5 μM

Prompt line: Specify measured IC50 for Cc1cc(-c2[nH]c3ccc(CCN4CCC(F)CC4)cc3c2C(C)C)cn(C)c1=O [Example 407] .
Response line: 9 nM

Prompt line: Specify measured IC50 for Cc1cc(-c2[nH]c3ccc(C4CCC(C)(O)CC4)cc3c2C(C)C)cc(C)n1 (single isomer, unassigned) [Example 170] .
Response line: 13 nM

Prompt line: Specify measured IC50 for Cc1cc(-c2[nH]c3ccc(C4CCC(NC5COC5)CC4)cc3c2C(C)C)cc(C)n1 (stereo not drawn) [Example 61] .
Response line: 1 nM

Prompt line: Specify measured IC50 for Cc1c(-c2[nH]c3ccc(C4CCC(N5CC(CO)(CO)C5)CC4)cc3c2C(C)C)cn2ncnc2c1C (single isomer, unassigned) [Example 26] .
Response line: 0.92 nM

Prompt line: Specify measured IC50 for Cc1c(-c2[nH]c3ccc(C4CC(NC(=O)CN(C)C)C4)cc3c2C(C)C)cn(C)c(=O)c1C (stereo not drawn) [Example 490] .
Response line: 2 nM

Prompt line: Specify measured IC50 for Cc1cc(-c2[nH]c3ccc(C4CCCNC4)cc3c2C(C)C)cc(C)n1 (stereo not drawn) [Example 187] .
Response line: 2 nM

Prompt line: Specify measured IC50 for Cc1c(-c2[nH]c3ccc(C4CCCN(CC(=O)N(C)C)C4)cc3c2C(C)C)cn2ncnc2c1C (stereo not drawn) [Example 230] .
Response line: 13 nM

Prompt line: Specify measured IC50 for Cc1cc(-c2[nH]c3ccc(CCN4CCOCC4)cc3c2C(C)C)cn(C)c1=O [Example 403] .
Response line: 36 nM

Prompt line: Specify measured IC50 for Cc1cc(-c2[nH]c3ccc(C4CNCCO4)cc3c2C(C)C)cn2ncnc12 (stereo not drawn) [Example 283] .
Response line: 0.95 nM

Prompt line: Specify measured IC50 for Cc1c(-c2[nH]c3ccc(CC4CN(CCS(C)(=O)=O)C4)cc3c2C(C)C)cn(C)c(=O)c1C [Example 418] .
Response line: 77 nM

Prompt line: Specify measured IC50 for COc1cc(-c2[nH]c3ccc(C4CCC(N5CC(F)C5)CC4)cc3c2C(C)C)cn2ncnc12 (stereo not drawn) [Example 21] .
Response line: 0.41 nM

Prompt line: Specify measured IC50 for COc1cc(-c2[nH]c3ccc(C4CCCN(C(=O)CN(C)C)C4)cc3c2C(C)C)cn2ncnc12 (stereo not drawn) [Example 191] .
Response line: 0.34 nM

Prompt line: Specify measured IC50 for COc1cc(-c2[nH]c3ccc(C4CCC(N5CC(F)(F)C5)CC4)cc3c2C(C)C)cn2ncnc12 (stereo not drawn) [Example 19] .
Response line: 26 nM

Prompt line: Specify measured IC50 for Cc1cc(-c2[nH]c3ccc(C4CCC(N(C)C(=O)CN(C)C)CC4)cc3c2C(C)C)cn2ncnc12 (stereo not drawn) [Example 149] .
Response line: 0.43 nM

Prompt line: Specify measured IC50 for Cc1cc(-c2[nH]c3ccc(C4CCCN(C(=O)C5CNC5)C4)cc3c2C(C)C)cc(C)n1 (stereo not drawn) [Example 215] .
Response line: 19 nM

Prompt line: Specify measured IC50 for Cc1c(-c2[nH]c3ccc(C4CCC(NC5COC5)CC4)cc3c2C(C)C)cn(C)c(=O)c1C (stereo not drawn) [Example 474] .
Response line: 45 nM

Prompt line: Specify measured IC50 for CNCC(=O)N1CCCC(c2ccc3[nH]c(-c4cc(OC)c5ncnn5c4)c(C(C)C)c3c2)C1 (stereo not drawn) [Example 211] .
Response line: 3 nM

Prompt line: Specify measured IC50 for COc1cc(-c2[nH]c3ccc(C4CCC(N5CCC[C@H]5C(N)=O)CC4)cc3c2C(C)C)cn2ncnc12 (stereo partly drawn) [Example 31] .
Response line: 1 nM

Prompt line: Specify measured IC50 for Cc1cc(-c2[nH]c3ccc(C4CCC(NC(=O)CN(C)C)CC4)cc3c2C(C)C)cn2ncnc12 (stereo not drawn) [Example 121] .
Response line: 0.41 nM

Prompt line: Specify measured IC50 for Cc1c(-c2[nH]c3ccc(C4CCC(NCC(=O)N(C)C)CC4)cc3c2C(C)C)cn2cnnc2c1C (stereo not drawn) [Example 517] .
Response line: 5 nM

Prompt line: Specify measured IC50 for COc1cc(-c2[nH]c3ccc(C4CCC(N(C)C5CC5)CC4)cc3c2C(C)C)cn2ncnc12 (stereo not drawn) [Example 13] .
Response line: 1 nM

Prompt line: Specify measured IC50 for Cc1cc(-c2[nH]c3ccc(C4CN(C)C(C)(C)CO4)cc3c2C(C)C)cn2ncnc12 (single isomer, unassigned) [Example 376] .
Response line: 2 nM

Prompt line: Specify measured IC50 for COc1cc(-c2[nH]c3ccc(C4CN(C)CCO4)cc3c2C(C)C)cn2ncnc12 (stereo not drawn) [Example 299] .
Response line: 2 nM

Prompt line: Specify measured IC50 for CCc1c(-c2ccc(OC)c(OC)c2)[nH]c2ccc(CN3CC4CN(C(C)C)CC4C3)cc12 (stereo not drawn) [Example 392] .
Response line: 2390 nM

* * *

Target: UniProt Q9NYK1
Sequence (Q9NYK1 27-1049): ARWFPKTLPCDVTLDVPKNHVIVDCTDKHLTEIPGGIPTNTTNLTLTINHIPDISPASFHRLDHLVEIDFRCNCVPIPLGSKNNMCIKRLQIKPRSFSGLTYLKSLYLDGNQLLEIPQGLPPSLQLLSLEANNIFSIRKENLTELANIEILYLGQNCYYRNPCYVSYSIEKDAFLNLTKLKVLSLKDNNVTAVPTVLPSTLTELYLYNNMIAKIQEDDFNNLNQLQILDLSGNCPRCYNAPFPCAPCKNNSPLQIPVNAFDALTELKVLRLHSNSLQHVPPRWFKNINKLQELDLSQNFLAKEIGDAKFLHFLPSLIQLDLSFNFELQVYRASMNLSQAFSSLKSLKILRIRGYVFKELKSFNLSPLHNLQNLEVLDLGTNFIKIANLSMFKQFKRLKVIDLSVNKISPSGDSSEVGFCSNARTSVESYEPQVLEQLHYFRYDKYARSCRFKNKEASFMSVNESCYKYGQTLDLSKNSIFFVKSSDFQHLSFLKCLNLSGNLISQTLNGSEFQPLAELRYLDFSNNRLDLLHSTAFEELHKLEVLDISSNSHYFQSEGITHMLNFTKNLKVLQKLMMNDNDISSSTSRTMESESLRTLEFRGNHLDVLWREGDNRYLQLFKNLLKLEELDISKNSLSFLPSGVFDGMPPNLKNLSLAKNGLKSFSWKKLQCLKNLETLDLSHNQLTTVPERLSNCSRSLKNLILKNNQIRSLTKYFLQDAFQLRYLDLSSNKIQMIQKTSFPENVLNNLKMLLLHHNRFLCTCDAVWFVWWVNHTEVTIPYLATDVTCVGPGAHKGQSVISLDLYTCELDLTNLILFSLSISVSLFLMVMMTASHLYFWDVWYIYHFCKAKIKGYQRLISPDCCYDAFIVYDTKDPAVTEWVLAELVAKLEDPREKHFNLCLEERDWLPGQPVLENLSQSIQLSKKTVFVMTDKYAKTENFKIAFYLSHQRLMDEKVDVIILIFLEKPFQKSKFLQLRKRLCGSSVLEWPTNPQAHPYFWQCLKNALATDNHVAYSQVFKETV
Experiment: TLR7 inhibition reporter assay (HEK-Blue cells, SEAP reporter, gardiquimod stimulation)
Conditions: HEK-Blue cells overexpressing human TLR7, SEAP reporter, gardiquimod 7.5 μM
Kindly supply the reported pIC50 values for the records listed here.
Please treat pIC50 as minus the base-10 logarithm of the molar concentration.

Prompt line: Specify measured pIC50 for Cc1cc(-c2[nH]c3ccc(C4CCC(NC5CC5)CC4)cc3c2C(C)C)cn2ncnc12 (single isomer, unassigned) [Example 15] .
Response line: 8.40

Prompt line: Specify measured pIC50 for CNC(=O)CNC1CCC(c2ccc3[nH]c(-c4cc(OC)c5ncnn5c4)c(C(C)C)c3c2)CC1 (stereo not drawn) [Example 166] .
Response line: 8.40

Prompt line: Specify measured pIC50 for Cc1c(-c2[nH]c3ccc(C4CC5CN(C(=O)CN(C)C)CC5C4)cc3c2C(C)C)cn2cnnc2c1C (stereo not drawn) .
Response line: 8.40

* * *

Biological target: human TLR8 (Homo sapiens)
Sequence (Q9NR97 27-1041): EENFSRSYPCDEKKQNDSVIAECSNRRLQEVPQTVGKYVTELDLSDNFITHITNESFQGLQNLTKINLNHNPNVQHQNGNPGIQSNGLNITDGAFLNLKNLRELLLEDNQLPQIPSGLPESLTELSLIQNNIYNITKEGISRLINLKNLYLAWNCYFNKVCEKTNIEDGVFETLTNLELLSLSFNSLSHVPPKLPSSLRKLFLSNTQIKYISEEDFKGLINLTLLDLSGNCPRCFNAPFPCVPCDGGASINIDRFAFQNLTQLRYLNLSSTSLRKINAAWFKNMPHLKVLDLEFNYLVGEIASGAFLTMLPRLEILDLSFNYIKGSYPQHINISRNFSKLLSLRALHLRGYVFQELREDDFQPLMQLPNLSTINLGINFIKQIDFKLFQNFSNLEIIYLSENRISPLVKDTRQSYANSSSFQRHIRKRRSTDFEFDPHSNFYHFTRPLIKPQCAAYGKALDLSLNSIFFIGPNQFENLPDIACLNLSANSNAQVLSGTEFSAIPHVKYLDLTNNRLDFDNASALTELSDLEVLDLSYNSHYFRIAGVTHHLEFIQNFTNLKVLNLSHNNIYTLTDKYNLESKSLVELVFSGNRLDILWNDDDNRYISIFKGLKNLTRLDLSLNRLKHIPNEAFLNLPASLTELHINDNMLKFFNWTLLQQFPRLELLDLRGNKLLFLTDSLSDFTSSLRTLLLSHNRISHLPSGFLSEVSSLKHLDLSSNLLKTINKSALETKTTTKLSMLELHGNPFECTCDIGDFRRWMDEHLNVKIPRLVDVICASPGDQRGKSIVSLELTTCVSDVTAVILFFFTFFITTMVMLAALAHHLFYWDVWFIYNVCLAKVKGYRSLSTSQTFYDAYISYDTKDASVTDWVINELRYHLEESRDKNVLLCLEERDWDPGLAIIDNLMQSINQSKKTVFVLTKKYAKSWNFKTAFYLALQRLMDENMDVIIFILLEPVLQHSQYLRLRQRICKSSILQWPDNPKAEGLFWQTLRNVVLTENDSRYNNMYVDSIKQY
Assay: TLR8 inhibition reporter assay (HEK-Blue cells, SEAP reporter, R848 stimulation)
Settings: HEK-Blue cells overexpressing human TLR8, SEAP reporter, R848 15.9 μM
With a cut-off of 20 nM, any IC50 strictly below it is called rule met; any IC50 meeting it or above is called rule not met.

Prompt line: For Cc1cc(-c2[nH]c3ccc(C4CCCN(C(=O)C5(C)COC5)C4)cc3c2C(C)C)cc(C)n1 (centres unmarked) [Example 203] , is the recorded IC50 below the cut-off of 20 nM?
Response line: rule not met

Prompt line: For COc1cc(-c2[nH]c3ccc(C4CCC(N(C)C(C)C)CC4)cc3c2C(C)C)cn2ncnc12 (single isomer, unassigned) [Example 7] , is the recorded IC50 below the cut-off of 20 nM?
Response line: rule met

Prompt line: For COc1cc(-c2[nH]c3ccc(C4CCC(NC(=O)CC(F)(F)F)CC4)cc3c2C(C)C)cn2ncnc12 (centres unmarked) [Example 118] , is the recorded IC50 below the cut-off of 20 nM?
Response line: rule not met

Prompt line: For Cc1c(-c2[nH]c3ccc(C4CCC(N(C)C)CC4)cc3c2C(C)C)cn2ncnc2c1C (centres unmarked) [Example 111] , is the recorded IC50 below the cut-off of 20 nM?
Response line: rule met

Prompt line: For COc1cc(-c2[nH]c3ccc(C4CCC(N5CC[C@@H](N(C)C)C5)CC4)cc3c2C(C)C)cn2ncnc12 (some centres unmarked) [Example 28] , is the recorded IC50 below the cut-off of 20 nM?
Response line: rule met
